- Method: Storage stability of hydroxystilbenes (residual amount by HPLC)
- Assay type: physicochemical
- Measurement setup: pH 8, left 43 days at room temperature; sample with PEG-60 hydrogenated castor oil in citric acid buffer solution; HPLC
Experimental readout: remaining at 1032 h (%)
Kindly answer with a numeric value in %, unit omitted.

Previously resolved entries follow.
# Compound, Unit symbol, Measurement
data = [
    ("COc1cc(/C=C/c2ccc(O)cc2)cc(OC)c1", "%", 99),
    ("Oc1ccc(C=Cc2cc(O)cc(O)c2)cc1", "%", 54),
    ("COc1cc(/C=C/c2cc(O)cc(O)c2)ccc1O [(E)-3,4',5-trihydroxy-3'-methoxystilbene]", "%", 46),
]

# next compound below
Lab book: remaining at 1032 h of Oc1cc(O)cc(/C=C/c2ccc(O)c(O)c2)c1 noted as 26

Provenance of the data: patent EP2832344A1
